The reported numbers originate from ChEMBL document CHEMBL1201862.

# MEASURED ON: Cytochrome P450 3A4 (Homo sapiens)
# Sequence (P08684 whole entry): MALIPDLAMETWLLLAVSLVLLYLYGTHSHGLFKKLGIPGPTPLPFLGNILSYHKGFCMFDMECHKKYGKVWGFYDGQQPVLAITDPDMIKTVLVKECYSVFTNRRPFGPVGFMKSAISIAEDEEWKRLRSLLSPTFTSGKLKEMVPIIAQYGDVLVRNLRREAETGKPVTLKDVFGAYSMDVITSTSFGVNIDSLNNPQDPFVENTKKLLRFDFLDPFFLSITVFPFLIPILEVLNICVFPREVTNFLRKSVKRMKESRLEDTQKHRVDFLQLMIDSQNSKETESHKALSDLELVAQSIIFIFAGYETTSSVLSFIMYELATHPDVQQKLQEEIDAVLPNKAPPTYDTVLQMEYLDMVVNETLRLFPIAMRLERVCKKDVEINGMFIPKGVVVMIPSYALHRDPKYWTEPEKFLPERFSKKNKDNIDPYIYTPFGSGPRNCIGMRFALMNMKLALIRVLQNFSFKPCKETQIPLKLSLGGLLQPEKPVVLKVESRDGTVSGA
# CONDITION CONTEXT: Potency
Documented AC50 across a set of molecules

Oc1ccc2c(c1)OCC1c3cc4c(cc3OC21)OCO4 (centres undefined) = 39.8 µM (inconclusive)
COC(=O)CC1C(C)(C)C2(O)OC34CC2C(=O)[C@@]1(C)C3CC[C@]1(C)C4=CC(=O)OC1c1ccoc1 (some centres undefined) = 3.16 µM (inconclusive)
COc1ccc2nc(N)sc2c1 = 31.6 µM (inconclusive)

Prompt: Requested field: AC50. Item: `CC1(C)CC(=O)c2c(oc3cc(O)c(O)cc23)C1`
Completion: 31.6 µM (inconclusive)

----------
# ASSAY: Luminescence Cell-Based Dose Response HTS to Identify Activators of Luciferase Translation or Activity in H4 […] Cells. [Related pubchem assays: 1829 (Project Summary), 1814 (Primary HTS)]
# Format: functional
Activity calls are given as the source filed them.
PARAMETER MEASURED: EC50

Answered examples (3):
O=C(/C=C/c1ccccc1Cl)c1ccc[nH]1 = 24.3 µM (active)
O=C(Nc1cc(N2CCCCC2)ncn1)c1ccc(F)cc1 = 17.3 µM (active)
c1ccc(-n2nc3ccc4c[nH]nc4c3n2)cc1 = > 120 µM (not active)

In the following, a different compound is considered.
Prompt: For the compound shown here, O=C(Nc1ccccc1)c1cc2n(n1)C(C(F)(F)F)CC(C1CC1)N2 (centres undefined) , give the reported EC50.
Completion: 5.46 µM (active)

----------
Reported AC50 values follow for various compounds
# MEASURED ON: Cytochrome P450 2C19 (Homo sapiens)
# Sequence (P33261 whole entry): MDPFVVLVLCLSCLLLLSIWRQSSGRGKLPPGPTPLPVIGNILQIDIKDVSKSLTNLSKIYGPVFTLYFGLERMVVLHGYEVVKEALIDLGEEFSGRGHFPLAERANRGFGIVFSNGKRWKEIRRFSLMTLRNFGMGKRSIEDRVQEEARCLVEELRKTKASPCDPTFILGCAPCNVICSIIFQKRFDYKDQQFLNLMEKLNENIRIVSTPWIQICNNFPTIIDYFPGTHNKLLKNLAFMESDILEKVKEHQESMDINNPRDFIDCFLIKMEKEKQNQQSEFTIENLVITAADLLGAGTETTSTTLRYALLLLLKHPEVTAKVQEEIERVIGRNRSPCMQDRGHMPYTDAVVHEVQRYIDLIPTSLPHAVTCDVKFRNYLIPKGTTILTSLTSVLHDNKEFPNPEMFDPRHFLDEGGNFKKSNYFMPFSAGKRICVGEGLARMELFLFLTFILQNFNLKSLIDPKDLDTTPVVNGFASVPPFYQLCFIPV
# ASSAY: Cytochrome panel assay with activity outcomes. Panel member name: p450-cyp2c19 Compounds with AC50 equal or less than 10 uM are considered active
# Assay type: functional
# CONDITION CONTEXT: read-out: AC50

A selection of reference data follows.
Cc1cc(C(=O)NNC(=S)NC(C)c2ccccc2)c2ccccc2n1 (stereo not given) = 22.4 µM (inconclusive)
Cc1nc2ncnn2c(O)c1NC(=O)CC12CC3CC(CC(C3)C1)C2 = 44.7 µM (inconclusive)
Clc1ccccc1-c1ccc2ncnc(N3CCNCC3)c2c1 = 31.6 µM (inconclusive)

Prompt: Fill in the blank: the reported AC50 of `COc1ccccc1-c1nc(NCc2cccnc2)c2ccccc2n1` is ____.
Completion: 39.8 µM (inconclusive)

Prompt: How about `CCCC(=O)NNC(=O)Nc1ccccc1` ?
Completion: 28.2 µM (inconclusive)

Prompt: Same again, this time with `O=C(c1ccncc1)N1CCC2(CC1)CN(c1ccc(-c3ccccc3)cc1)C2`
Completion: 2.51 µM (inconclusive)

Prompt: Same lookup for COc1ccccc1NC(=O)CCN1C(=O)C2CC=C(Cl)CC2C1=O (stereo not given) , please.
Completion: 7.94 µM (inconclusive)

----------
# MEASURED ON: Zinc finger protein mex-5 (Caenorhabditis elegans, UniProt Q9XUB2)
# Sequence (Q9XUB2 whole entry): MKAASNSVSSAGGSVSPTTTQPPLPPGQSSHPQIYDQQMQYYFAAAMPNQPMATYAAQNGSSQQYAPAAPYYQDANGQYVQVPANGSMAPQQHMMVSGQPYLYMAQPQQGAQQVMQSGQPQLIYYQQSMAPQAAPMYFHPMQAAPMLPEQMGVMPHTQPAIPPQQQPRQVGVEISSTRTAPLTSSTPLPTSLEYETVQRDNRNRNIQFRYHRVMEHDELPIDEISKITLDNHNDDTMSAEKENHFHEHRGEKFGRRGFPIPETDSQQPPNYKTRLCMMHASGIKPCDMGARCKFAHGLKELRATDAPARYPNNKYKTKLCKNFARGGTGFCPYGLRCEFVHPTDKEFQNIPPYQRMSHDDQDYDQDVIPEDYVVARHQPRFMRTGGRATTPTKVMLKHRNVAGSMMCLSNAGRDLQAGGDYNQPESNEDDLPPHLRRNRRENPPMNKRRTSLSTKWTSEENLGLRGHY
# ASSAY: MEX-5/TCR-2 RNA interaction inhibitors, dose response, biochemical, C. elegans, fluorescence polarization (AID 1960)
Calls of active or inactive are those of the source.
Documented EC50 across a set of compounds

Example cases with answers are listed next.
C/C(=N/N=C(\C)c1ccccc1O)c1ccccc1O = > 300 µM (inconclusive)
Nc1nonc1C(=O)NCC/N=C/c1cc(Cc2ccccc2)cc(Br)c1O = > 300 µM (not active)
CCOC(=O)C1Nc2ccc(C(=O)O)cc2C2C=CCC12 (stereo unspecified) = 20.3 µM (active)
CC/C(NCCCN(C)C)=C1/C(=O)NC(=O)N(c2ccc(OC)cc2)C1=O = > 300 µM (not active)
O=C(Cn1cncn1)N/N=C/c1c2ccccc2cc2ccccc12 = > 300 µM (not active)
CCc1ccc(/C=C2\Oc3c(ccc(O)c3CN3CCN(CCO)CC3)C2=O)cc1 = 73.3 µM (active)

Prompt: What measured EC50 goes with `Cc1ccc(/C=C2\C(=O)NC(=S)N(c3cccc(F)c3)C2=O)o1` ?
Completion: 44.6 µM (active)

Prompt: Okay, and `CCN1C(=C(C#N)C#N)C=Cc2ccccc21` ?
Completion: > 300 µM (not active)

Prompt: Same question for `COc1ccc(OC)c(N/C=C2/C(=O)NC(=S)N(Cc3ccccc3)C2=O)c1` please.
Completion: > 300 µM (inconclusive)

Prompt: What do you have for `O=C(O)CCc1ccc(-c2ccccc2)n1-c1cccc(C(=O)O)c1` ?
Completion: > 300 µM (not active)

Prompt: Also check `O=C1c2cc(F)ccc2-n2c1nc1ccccc1c2=O`
Completion: > 300 µM (not active)
